- experimentalDetails: Cytotoxicity against human SH-SY5Y cells assessed as cell viability at 1 uM after 24 hrs by MTT assay
- Format: cell-based
- reportedConditions: read-out: Activity
measurementType: viability at 24 h, 1 µM (%)

>>> df
                                   compound          measurementtype  observedvalue
0  COc1cc2c(cc1OC)C(Cc1ccc(OCCCCCCN3CCCCC3C)cc1)NCC2 (stereo unspecified)  viability at 24 h, 1 µM           96.8

* * *

- testSystem: Cholinesterase (Homo sapiens, UniProt P06276)
- Sequence (P06276 whole entry): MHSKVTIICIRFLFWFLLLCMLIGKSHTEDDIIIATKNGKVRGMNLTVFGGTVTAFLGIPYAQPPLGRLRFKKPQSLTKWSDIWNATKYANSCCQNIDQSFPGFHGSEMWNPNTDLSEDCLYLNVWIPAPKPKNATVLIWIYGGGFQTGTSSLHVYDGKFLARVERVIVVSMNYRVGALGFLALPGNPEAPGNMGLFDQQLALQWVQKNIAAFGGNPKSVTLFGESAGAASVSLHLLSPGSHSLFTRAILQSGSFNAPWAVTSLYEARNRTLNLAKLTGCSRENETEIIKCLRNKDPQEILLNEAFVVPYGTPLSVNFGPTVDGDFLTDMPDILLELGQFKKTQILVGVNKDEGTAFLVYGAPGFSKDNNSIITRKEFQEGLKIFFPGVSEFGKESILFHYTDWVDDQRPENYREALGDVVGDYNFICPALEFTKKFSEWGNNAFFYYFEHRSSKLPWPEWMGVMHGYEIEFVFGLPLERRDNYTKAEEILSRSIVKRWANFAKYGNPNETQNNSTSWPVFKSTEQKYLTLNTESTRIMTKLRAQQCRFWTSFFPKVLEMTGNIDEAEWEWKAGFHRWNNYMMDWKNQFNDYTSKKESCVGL
- experimentalDetails: Inhibition of BuChE in human serum using S-butyrylthiocholine iodide as substrate preincubated with enzyme for 20 mins followed by substrate addition by Ellman's method
pIC50: −log10 of the molar value.
measurementType: pIC50

>>> print(df.to_string())
                                    molecule  observedvalue
 0  COc1cc2c(cc1OC)C(Cc1ccc(OCCCCCCN3CCC(O)CC3)cc1)NCC2 (stereo not given)           4.62
 1  CCCCN(CCCC)CCCCCCOc1ccc(CC2NCCc3cc(OC)c(OC)cc32)cc1 (stereo not given)           5.22
 2  COc1cc2c(cc1OC)C(Cc1ccc(OCCCCCCN3CCN(c4ccccc4)CC3)cc1)NCC2 (stereo not given)           4.89
 3  COc1cc2c(cc1OC)C(Cc1ccc(OCCCCCCN3CCN(Cc4ccccc4)CC3)cc1)NCC2 (stereo not given)           4.66
 4  COc1cc2c(cc1OC)C(Cc1ccc(OCCCCCCN3CCCC3C)cc1)NCC2 (stereo not given)           5.19
 5  COc1cc2c(cc1OC)C(Cc1ccc(OCCCCCCN3CCCC3)cc1)NCC2 (stereo not given)           5.64
 6  COc1cc2c(cc1OC)C(Cc1ccc(OCCCCCCN3CCCCC3)cc1)NCC2 (stereo not given)           5.49
 7  COc1cc2c(cc1OC)C(Cc1ccc(O)cc1)NCC2 (stereo not given)           4.33
 8  COc1cc2c(cc1OC)C(Cc1ccc(OCCCCCCN(C)C)cc1)NCC2 (stereo not given)           5.46
 9  CCCN(CCC)CCCCCCOc1ccc(CC2NCCc3cc(OC)c(OC)cc32)cc1 (stereo not given)           4.95
10  CCN(CC)CCCCCCOc1ccc(CC2NCCc3cc(OC)c(OC)cc32)cc1 (stereo not given)           4.78
11  COc1cc2c(cc1OC)C(Cc1ccc(OCCCCCCN3CCCCC3C)cc1)NCC2 (stereo not given)           5.23
12  COc1cc2c(cc1OC)C(Cc1ccc(OCCCCCCN3CCC(c4ccccc4)CC3)cc1)NCC2 (stereo not given)           5.03
13  COc1cc2c(cc1OC)C(Cc1ccc(OCCCCCCN3CCC(O)(Cc4ccccc4)CC3)cc1)NCC2 (stereo not given)           4.80
14  COc1cc2c(cc1OC)C(Cc1ccc(OCCCCCCN3CCOCC3)cc1)NCC2 (stereo not given)           4.98

* * *

- experimentalDetails: Cytotoxicity against human SH-SY5Y cells assessed as cell viability at 0.1 uM after 24 hrs by MTT assay
- Assay type: cell-based
- reportedConditions: read-out: Activity
measurementType: viability at 24 h, 0.1 µM (%)

                                   compound  observedvalue
0  COc1cc2c(cc1OC)C(Cc1ccc(OCCCCCCN3CCCCC3C)cc1)NCC2 (stereo unspecified)           96.8

Each recorded value in this set is attributed to ChEMBL document CHEMBL3259766.
